MEASURED_ON: KCNQ2/3 channels (Homo sapiens, UniProt O43525+O43526)
EXPERIMENTAL_DETAILS: Two-electrode voltage-clamp of KCNQ2/3 channels expressed in Xenopus laevis oocytes
Format: cell-based
TEST_CONDITIONS: KCNQ2/3; 1 µM
ASSAY_READOUT: Normalized tail current V0.5 (mV)
The reply should contain only the number, in mV.

Worked examples, 5 molecules total:
O=C(O)/C=C/CC(=O)O: -42.7
Oc1ccccc1S: -43.6
CCOC(=O)Nc1ccc(NCc2ccc(F)cc2)cc1N [Retigabine, retigabine, reference compound]: -41.9
CC(=O)c1c(O)c(C)c(O)c(Cc2c(O)c3c(c(C(=O)/C=C/c4ccccc4)c2O)OC(C)(C)C=C3)c1O: -47.0
CCCCCCCC/C=C\CCCCCCCC(N)=O [Oleamide, oleamide]: -41.5

Shifting focus to the molecule that follows.
Look at this molecule and give its reported Normalized tail current V0.5. "CCCCCCCCCCCCCCCC(=O)O" -46.6

----------
MEASURED_ON: KCNQ2/3 channels (Homo sapiens, UniProt O43525+O43526)
EXPERIMENTAL_DETAILS: Two-electrode voltage-clamp of KCNQ2/3 channels expressed in Xenopus laevis oocytes
Type: cell-based
TEST_CONDITIONS: KCNQ2/3; 100 µM
ASSAY_READOUT: Normalized tail current V0.5 (mV)
The reply should contain only the number, in mV.

Look at this molecule and give its reported Normalized tail current V0.5. "CC(=O)c1c(O)c(C)c(O)c(Cc2c(O)c3c(c(C(=O)/C=C/c4ccccc4)c2O)OC(C)(C)C=C3)c1O" -57.1

Subsequent entry: "C=CCCCCC" -41.8

Subsequent entry: "O=C(O)/C=C/CC(=O)O" -40.7

----------
MEASURED_ON: KCNQ4 (Homo sapiens)
EXPERIMENTAL_DETAILS: cell-based
ASSAY_READOUT: pEC50
pEC50 (log units): -log10 of the concentration in mol/L.

Look at this molecule and give its reported pEC50. "CC(=O)c1c(O)c(C)c(O)c(Cc2c(O)c3c(c(C(=O)/C=C/c4ccccc4)c2O)OC(C)(C)C=C3)c1O" 4.69

----------
MEASURED_ON: KCNQ2/3 channels (Homo sapiens, UniProt O43525+O43526)
EXPERIMENTAL_DETAILS: Two-electrode voltage-clamp of KCNQ2/3 channels expressed in Xenopus laevis oocytes
Format: cell-based
TEST_CONDITIONS: KCNQ2/3; 100 µM
Criterion: Slope strictly less than 5 mV. Met: Yes. Not met: No.

Hello, I'm reviewing records and need to know if Slope of "C=CCCCCC" is below 5 mV. Could you check? No

Subsequent entry: "O=C(O)/C=C/CC(=O)O" No

Subsequent entry: "C/C=C/C=C/C(=O)O" Yes

Subsequent entry: CCCCCCCC/C=C\CCCCCCCC(N)=O [Oleamide, oleamide] No

Subsequent entry: "CC(=O)c1c(O)c(C)c(O)c(Cc2c(O)c3c(c(C(=O)/C=C/c4ccccc4)c2O)OC(C)(C)C=C3)c1O" No

----------
MEASURED_ON: KCNQ2/3 channels (Homo sapiens, UniProt O43525+O43526)
EXPERIMENTAL_DETAILS: Two-electrode voltage-clamp of KCNQ2/3 channels expressed in Xenopus laevis oocytes
Assay type: cell-based
TEST_CONDITIONS: EC50, KCNQ2/3; current at −60 mV; calculated from dose responses
ASSAY_READOUT: EC50 (µM)
The reply should contain only the number, in µM.

Look at this compound and give its reported EC50. CC(=O)c1c(O)c(C)c(O)c(Cc2c(O)c3c(c(C(=O)/C=C/c4ccccc4)c2O)OC(C)(C)C=C3)c1O [MTX, mallotoxin] 11.5
